Test system: T-47D breast
METHOD_DESCRIPTION: NCI tumour cell line growth inhibition, 48 h
REPORTED_PROPERTY: TGI

• O=C(CC(C(=O)c1cccs1)c1ccsc1)c1ccc(Cl)s1 (stereo not given) = > 100 µM
• CCC(Nc1ncnc2nc[nH]c12)C(=O)O (stereo not given) = > 100 µM
• O=C(Oc1c(Cl)cc(Cl)cc1Cl)c1ccccc1Nc1ccnc(C(F)(F)F)c1 = > 100 µM
• C=CCOC(=O)Cn1ccc(=O)[nH]c1=O = > 100 µM
• COc1cc(C(=O)n2nc(N)c3c(C)cc(C)nc32)cc(OC)c1OC = > 100 µM
• Cc1ccc(S(=O)(=O)N(CCNC(=O)c2cccc(O)c2O)c2cc3c4c(c2)Oc2cccc5c2C4(C)c2c(cccc2O3)O5)cc1 = > 100 µM
• COc1ccc2c(c1)-c1c(c3cc(OC)ccc3n(CCN(C)C)c1=O)C2=O = 11.4 µM
• CSc1nc(SC)c2c(C)cn(COCCOC(=O)c3ccccc3)c2n1 = 94.5 µM
• CN(C)c1ccc2[nH]c3c(C(N)=O)cc(=O)c(=O)c=3oc2c1 = > 100 µM
• Cc1cc(N(CCNc2ccnc3cc(Cl)ccc23)Cc2ccc3c(c2)OCO3)nc(N2CCCC2)n1 = 5.44 µM

====

Test system: HCC-2998 colon
METHOD_DESCRIPTION: NCI tumour cell line growth inhibition, 48 h; in the data active = GI50 below about 0.43 µM; inactive = the rest
Labels: 1.0 = active, 0.0 = inactive

* Clc1ccc(-c2nc(NCc3ccco3)c3ccccc3n2)c(Cl)c1 | 0.0
* COC(=O)CC1=C(C)/C(=C/c2[nH]c(-c3ccc[nH]3)cc2OC)N=C1C | 1.0
* O=C1C(=C([O-])c2ccccc2)C(=O)c2ccccc21.O=C1C(=C([O-])c2ccccc2)C(=O)c2ccccc21.[Ni+2] | 0.0
* COC(=O)c1cc2cc(/C=C3/SC(=S)N(N(C(C)=O)C(C)=O)C3=O)oc2n1Cc1ccccc1 | 0.0
* CC12O[C@H](C[C@@H](OC(=O)CCC(=O)O)[C@H]1O)n1c3ccccc3c3c4c(c5c6ccccc6n2c5c31)C(=O)NC4=O | 0.0
* COC(=O)c1cc(-c2ccc(S(C)(=O)=O)cc2)[nH]c1N/N=C/c1c(Cl)cccc1Cl | 0.0
* COc1ccc2c(c1)-c1c(c3cc(OC)ccc3n(CCN(C)C)c1=O)C2=O | 0.0
* CSc1nc2c(c(=O)n1C)C(c1ccccc1)C1=C(N2)/C(=C/c2ccccc2)CCC1 (centres undefined) | 0.0
* O=C1Cc2cc(CCN3CCNCC3)c(Cl)cc2N1 | 0.0

====

Tested on: OVCAR-8 ovarian
METHOD_DESCRIPTION: NCI tumour cell line growth inhibition, 48 h
Could you label it class 1 if measured TGI is 20 µM or higher, and class 0 otherwise?

* O=C1/C(=C/c2ccc(C(F)(F)F)cc2)COc2ccc(O)c(O)c21 | class 0
* COC(=O)c1cc2cc(/C=C3/SC(=S)N(N(C(C)=O)C(C)=O)C3=O)oc2n1Cc1ccccc1 | class 1
* CN(C)CC1CCC/C(=C\c2ccc(OC(=O)/C=C/c3ccc(Cl)cc3)cc2)C1=O (stereo not given) | class 0
* CC1(C)C(=O)/C=C\C(=O)C(C)(C)C(=O)/C=C\C(=O)C(C)(C)C2=CC=C(O2)C(C)(C)C(=O)/C=C\C1=O | class 0
* CCN(CC)CCC1CCCCN1CC(=O)N1c2cc(Cl)ccc2NC(=O)CC1C (stereo not given) | class 1
* C=CCSC(C)=O | class 1
* COc1ccc2cc1Oc1ccc(cc1)C[C@@H]1c3cc(c(OC)cc3CCN1C)Oc1c(OC)c(OC)cc3c1[C@H](C2)N(C)CC3 | class 1
* CCN(CC)c1ccc(C2N3CCCCC3[C@@H]3c4[nH]c5ccccc5c4CCN23)cc1 (stereo not given in full) | class 1
* C=C(C)C(=O)Nc1ccc(-c2c(-c3ccc(Oc4nccc(C)n4)c(F)c3)c3c(N)ncnc3n2C)cc1 | class 0
* CN(C)CCC[N+]1=Nc2cccc3cccc(c23)N1 | class 1
* Cc1[nH]c2cc([N+](=O)[O-])ccc2c1[N+](=O)[O-] | class 1
* FC(F)(F)c1cccc(-c2[nH]ncc2-c2nnnn2-c2ccccc2)c1 | class 1
* CN(C)CCCn1c(Cn2nc3ccccc3n2)nc2cc(C(F)(F)F)ccc21 | class 1
* O=C(CC(C(=O)c1cccs1)c1ccsc1)c1ccc(Cl)s1 (stereo not given) | class 1
* Cc1nn2c(c1C#N)NNc1c-2sc(=N)nnc1=O | class 1
* N#COc1ccc(Oc2ccc(OC#N)cc2)cc1 | class 1
* COc1cc(S(=O)(=O)Nc2ccc(-c3csc(N4C(=O)CSC4c4ccccc4O)n3)cc2)ccc1Cl (stereo not given) | class 1
* Fc1ccc(Nc2nc(Nc3ccc(-c4nc5ccccc5[nH]4)cc3)c3cn[nH]c3n2)cc1 | class 0
* COC(=O)C(=O)C(C(=O)OC)C(=O)C(=O)Nc1c(Cl)cc([N+](=O)[O-])cc1Cl (stereo not given) | class 1
* O=C(NCCNCCO)c1ccc(Nc2nc3ccccc3c3occc23)cc1 | class 0

====

System: UACC-62 melanoma
METHOD_DESCRIPTION: NCI tumour cell line growth inhibition, 48 h; in the data active = GI50 below about 0.43 µM; inactive = the rest
Labels: 1 for active, -1 for inactive

* COC(=O)CC1=C(C)/C(=C/c2[nH]c(-c3ccc[nH]3)cc2OC)N=C1C | 1
* CCN1C(=O)N(CC)C2C1N=C(SC)N2/N=C/C=C/c1ccccc1OC (stereo unspecified) | -1
* CC(C)(C)[Si](C)(C)OC1[C@@H](COC(=O)NC(=O)CCl)O[C@@H](n2cnc3c(N)ncnc32)[C@H]1O[Si](C)(C)C(C)(C)C (stereo partly specified) | -1
* CC(=O)c1c(C)c2cnc(Nc3ccc(N4CCNCC4)cn3)nc2n(C2CCCC2)c1=O | -1
* O=C(Oc1c(Cl)cc(Cl)cc1Cl)c1ccccc1Nc1ccnc(C(F)(F)F)c1 | -1
* CCS(=O)(=O)c1ccc(OC)c(Nc2ncc(-c3cccc(F)c3)o2)c1 | -1
* COc1cc(C(=O)O[C@H](C(=O)NCCCCNC(=O)[C@@H](OC(=O)c2cc(OC)cc3c(C)cccc23)[C@]2(C)CO2)[C@]2(C)CO2)c2cccc(C)c2c1 | -1
* CC(=O)[CH-]C(=O)c1ccccc1.CC(=O)[CH-]C(=O)c1ccccc1.CC(=O)[CH-]C(=O)c1ccccc1.[Ga+3] | -1
* CSc1nc2c(c(=O)n1C)C(c1ccccc1)C1=C(N2)/C(=C/c2ccccc2)CCC1 (stereo unspecified) | -1
* CCOC(=O)/C=C1/SC(=Nc2ccc(C#N)cc2)N(Cc2ccco2)C1=O | -1
* COc1ccc2c(c1)C(=O)c1c-2n(CCCN(C)C)c(=O)c2cc([N+](=O)[O-])ccc12 | 1
* COc1ccc(-c2[nH]ncc2Nc2cc(OC)c(OC)c(OC)c2)cc1 | -1
* N#Cc1c(N)nc(N2CCOCC2)c(C#N)c1-c1c(Cl)cccc1Cl | -1
* O=C1/C(=C/c2ccc(C(F)(F)F)cc2)COc2ccc(O)c(O)c21 | -1
* COc1ccc2c(c1)-c1c(c3cc(OC)ccc3n(CCN(C)C)c1=O)C2=O | -1
* COc1ccc2c3/c(=C\c4ccc(N(C)C)cc4)c4ccccc4n3[n+](C)c2c1 | 1

====

Test system: SK-MEL-5 melanoma
METHOD_DESCRIPTION: NCI tumour cell line growth inhibition, 48 h
REPORTED_PROPERTY: TGI (µM)

• O=C1/C(=C/c2ccc([N+](=O)[O-])o2)Oc2ccc(Cl)cc21 = 3.03
• COC(=O)c1cc2cc(/C=C3/SC(=S)N(N(C(C)=O)C(C)=O)C3=O)oc2n1Cc1ccccc1 = 62.7
• CN(C)CCCn1c(Cn2nc3ccccc3n2)nc2cc(C(F)(F)F)ccc21 = 30.2
• CCN(C(=O)N[C@H](C(=O)N[C@@H](CSC)C(=O)N[C@@H](C)C(=O)OC)C(C)C)c1ccccc1 = 30.8
• Clc1ccc(-c2nc(NCc3ccco3)c3ccccc3n2)c(Cl)c1 = 30
• O=c1c2c3c(sc2nc2n1NC=NN2)CCCC3 = 31.7

====

Tested on: SK-MEL-28 melanoma
METHOD_DESCRIPTION: NCI tumour cell line growth inhibition, 48 h
REPORTED_PROPERTY: TGI

• C/C(=N\NC(N)=S)c1nc2ncccc2[nH]1 = > 100 µM
• COC1/C(=C\C(C)=O)c2ccccc2N1C(C)=O (configuration not stated) = > 100 µM
• CC(=O)OCC1OC(N=[N+]=[N-])C(OC(C)=O)C(OC(C)=O)C1OC1OC(COC(C)=O)C(OC(C)=O)C(OC(C)=O)C1OC(C)=O (configuration not stated) = > 100 µM
• N=C(CC(=O)Nc1ccccn1)c1ccccc1 = > 100 µM
• CCC(Nc1ncnc2nc[nH]c12)C(=O)O (configuration not stated) = > 100 µM
• CCO/C(O)=c1/s/c(=C(\C#N)c2nc3ccccc3[nH]2)n(-c2ccccc2)c1=N = > 100 µM
• CCCN(CCC)C(=O)c1c(N2CCN(C)CC2)c2cccnc2n2c(C)cnc12 = > 100 µM
• COc1ccc(-c2nnc3n(C)c4ccccc4n3c2=O)cc1 = > 100 µM
• COc1ccc([I+]c2ccc(OC)cc2)cc1 = > 100 µM
• C=CCOC(=O)Cn1ccc(=O)[nH]c1=O = > 100 µM
• O=C1/C(=C/c2ccc([N+](=O)[O-])o2)Oc2ccc(Cl)cc21 = 3.38 µM
• Cc1[nH]c2cc([N+](=O)[O-])ccc2c1[N+](=O)[O-] = 77.8 µM
• COc1cc(/C=C/C(=N\NC(N)=S)c2sc(NNC(C)=O)nc2C)ccc1O = > 100 µM
• COC(=O)c1ccccc1C1CN=NC12Cc1ccc3c(c1C2=O)CCC3 (configuration not stated) = > 100 µM
• COC(=O)CC1=C(C)/C(=C/c2[nH]c(-c3ccc[nH]3)cc2OC)N=C1C = 2.53 µM
• Cc1cc(N(CCNc2ccnc3cc(Cl)ccc23)Cc2ccc3c(c2)OCO3)nc(N2CCCC2)n1 = 3.2 µM
• COC(=O)C(=O)C(C(=O)OC)C(=O)C(=O)Nc1c(Cl)cc([N+](=O)[O-])cc1Cl (configuration not stated) = > 100 µM
• CC(C)(C)[Si](C)(C)OC1[C@@H](COC(=O)NC(=O)CCl)O[C@@H](n2cnc3c(N)ncnc32)[C@H]1O[Si](C)(C)C(C)(C)C (some centres not stated) = 13.7 µM
• CC1OC(O[C@@H]2C=C3CC[C@@H]4[C@H](CC[C@]5(C)[C@@H](c6ccc(=O)oc6)CC[C@]45O)[C@@]3(C)CC2)C(O)C(OC2OC(CO)C(O)C(O)C2O)C1O (some centres not stated) = 0.0867 µM
• CCC(c1ccccc1)c1cc(C(C)(C)C)cc(C(C)(C)C)c1O (configuration not stated) = 32.5 µM
• COc1ccc(-c2cc(-c3ccc(Nc4ccnc5cc(Cl)ccc45)cc3)[nH]c(=O)c2C#N)cc1 = > 100 µM
• CCCCCCCCCCCCCS(=O)(=O)NCC(N)=O = > 100 µM
• COc1cc(C(=O)O[C@H](C(=O)NCCCCNC(=O)[C@@H](OC(=O)c2cc(OC)cc3c(C)cccc23)[C@]2(C)CO2)[C@]2(C)CO2)c2cccc(C)c2c1 = 50 µM
• Cc1ccc(S(=O)(=O)N(CCNC(=O)c2cccc(O)c2O)c2cc3c4c(c2)Oc2cccc5c2C4(C)c2c(cccc2O3)O5)cc1 = > 100 µM
• O=c1[nH]c(=O)n(C2CC(O)C(CO)O2)cc1Br (configuration not stated) = > 100 µM
• CN(C)S(=O)(=O)c1nc(Cl)c2[nH]cnc2n1 = > 100 µM
• C=CCSC(C)=O = > 100 µM
